- Study target: T1, Recombinant SARS-CoV-2 N protein His tagged (SARS-CoV-2, UniProt P0DTC9 1-419)
- T1 construct: also called nucleocapsid (N) protein; recombinant HIS tagged SARS-CoV-2 N protein
- Assay method text: BLI (Octet Red 96E), mAb on anti-mouse Fc biosensor, N protein in solution, global 1:1 fit
Each record here notes measured pKd.
The value called pKd is obtained by taking minus log10 of the concentration in mol/L.

INSERT INTO assay_data (binder, measurement) VALUES
  ('SCT-Pa15 (antibody, mouse IgG1, kappa, V domains shown) VH: QVQVKQSGPGLVQPSQSLSITCTVSGFSSTSYAIHWVRQSPGKGLEWLGVIWSGGTTDYNAAFISRLSFSKDNSKSQLFFKMNSLQADDTAMYYCARGNYYGMDYWGQGTSVTVSS VL: DIVVTQSPASLAVSLGQRATISCRASESIDYDGDSYVNWYQQKPGQPPNLLIYAASNLESGIPARFSGGGSGTDFTLTIHPVEEEDAATYYCLQSYETPWTFGGGTKLEIKR', 9.00);

Attention now turns to another entry.
Prompt: What does the record list as pKd for SCT-Pa18 (antibody, mouse IgG1, kappa, V domains shown) VH: QVQLQQPGAELVKPGASVKLSCKASGYTFTSYWMQWVKQRPGQGLEWIGEIAPSDSYTNYNQKFKGKATLTVDTSSSTAYMQLSSLTSEDSAVYYCAGGDYYGYDVKTWFAYWGQGTLVTVSA VL: DIQMTQTTSSLSASLGDRVTISCSASQDISNYLNWYQQKPDGTVKLLIYYTSSLHSGVPSRFSGSGSGTGYSLTISNLEPEDIATYYCQQYSKLPYTFGGGTKLEIKR ?
Response: 9.64
